Entries and their growth inhibition
- measurement.notes: NCI Yeast Anticancer Drug Screen. Data for the CLN2oe strain (AID 163);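 note: 0% = growth of vehicle-only control cultures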
- assay.conditions: S. cerevisiae CLN2oe strain, at 1.2 µM, hits give high values
The panel holds about 79,000 compounds, 15% with a hit somewhere; the sample as a whole holds those more often.
recorded.endpoint: growth inhibition (%)

1. COc1ccc2nc3cccc([N+](=O)[O-])c3c(NCCCCCC(=O)O)c2c1 = 2
2. CCC(OC(C)=O)C1CC(C(C)C)CCC1C (centres undefined) = -4
3. c1ccc(-c2cc(C3CO3)c3ccccc3n2)cc1 (centres undefined) = -7
4. O=C(O)c1c2ccc(Cl)cc2nc2[nH]c(=O)[nH]c(=O)c12 = -45
5. Cc1c2c(nc3ccccc13)C(=O)c1cccnc1C2=O = -8
6. CCN(CC)CCNc1ccc2ncn3c4ccc(O)cc4c(=O)c1c23 = -4
7. CC(=O)O/N=C1C=C/C(=C(/C#N)c2ccccc2)C=C/1C = -6
8. O=C(O)c1ccccc1C(=O)OC1CCc2ccccc2C1 (centres undefined) = -10
9. C/C(=N\OCC(O)CNCCSCc1ccccc1)c1ccccc1Cl (centres undefined) = -3
10. COC(=O)C(Cc1c[nH]c2ccccc12)N1CN(C)c2ccccc2C1=O (centres undefined) = 4
11. COc1ccc2nc3cccc([N+](=O)[O-])c3c(NCCNCCO)c2c1 = -5
12. Cc1c2cc[n+](CCO)cc2c(C)c2c1[nH]c1ccc(O)cc12 = -11
13. CC(C)OP(=O)(OC(C)C)/C(Cl)=N/Nc1ccc([N+](=O)[O-])cc1 = 18
14. CC(C)S(=O)(=O)/C=C\S(=O)(=O)C(C)C = -6
15. c1ccc2c(c1)ccn2CCc1c[nH]c2ccccc12 = 7
16. O=C1C[C@H]2[C@H](c3ccc(Br)cc3)[C@H]3C(=O)c4ccccc4NC(=O)[C@@H]3[C@@]2(O)c2ccccc2N1 = 9
17. CC(C)(Br)C(=O)/C=C/c1ccccc1 = -4
18. CCOP(=O)(OCC)/C(C#N)=C/c1cccc(Oc2ccccc2)c1 = -12
19. COc1cc(NCCCCNCC(C)(C)C)c2ncccc2c1 = 0
20. COc1ccc2c(c1)CCCC(Br)C2=O (centres undefined) = 1
21. CCCCCCCN1C(=O)c2ccccc2C1=O = -1
22. CC(=O)CCC1=C(C)C(=O)C(=O)C(C)=C1O = 1
23. OC(c1ccccc1)(c1ccccc1)c1nccc2ccccc12 = 25
24. C/C1=C/C2OC(=O)C3(C)C2C(CC2(C)OC1=CC2=O)OC3(O)C(C)C (centres undefined) = 4
